Numbers sourced from paper PMC10974084.

# Tested on: A375 melanoma cells
# test details: SRB cytotoxicity assay, A375
# Format: cell-based
# measurement context: Homo sapiens, A-375; SRB assay, 96 h incubation, mean ± SD; read-out: IC50 A375
Catalogue of IC50 readings, one per entry.
Write down the numeric answer in µM and omit the unit.

Please review the following examples before continuing.
compound	readout unit	IC50
C=C(C)C1CCC2(COC(=O)CCC(=O)O)CCC3(C)C(CCC4C5(C)CCC(OC(C)=O)C(C)(C)C5CCC43C)C12 (centres unmarked)	µM	12.1
C=C(C)C1CCC2(C(=O)NCCOCCOC(=O)CCC(=O)O)CCC3(C)C(CCC4C5(C)CCC(OC(C)=O)C(C)(C)C5CCC43C)C12 (centres unmarked)	µM	10.5
C=C(C)C1CCC2(C(=O)NCCOCCO)CCC3(C)C(CCC4C5(C)CCC(OC(C)=O)C(C)(C)C5CCC43C)C12 (centres unmarked)	µM	4.3

Recorded IC50 for C=C(C)C1CCC2(C(=O)NCCS(N)(=O)=O)CCC3(C)C(CCC4C5(C)CCC(OC(C)=O)C(C)(C)C5CCC43C)C12 (centres unmarked) , please?
6.4

----------
# Test system: Hs578T spheroids
# test details: Spheroid cytotoxicity assay (luciferase), Hs578T
# Format: cell-based, human
# measurement context: 7 days of treatment, 3 independent experiments; read-out: IC50 Hs578T spheroids
recorded metric: IC50 (µM)
Write down the numeric answer in µM and omit the unit.

Recorded IC50 for NS(=O)(=O)c1ccc(NC(=O)Nc2ccc(F)cc2)cc1 [Compound U-104, reference compound] , please?
83.9
